Target: T1, GFP-9S library array, motif 4 ND N98H;D124N (synthetic construct, N98H;D124N)
T1 chain: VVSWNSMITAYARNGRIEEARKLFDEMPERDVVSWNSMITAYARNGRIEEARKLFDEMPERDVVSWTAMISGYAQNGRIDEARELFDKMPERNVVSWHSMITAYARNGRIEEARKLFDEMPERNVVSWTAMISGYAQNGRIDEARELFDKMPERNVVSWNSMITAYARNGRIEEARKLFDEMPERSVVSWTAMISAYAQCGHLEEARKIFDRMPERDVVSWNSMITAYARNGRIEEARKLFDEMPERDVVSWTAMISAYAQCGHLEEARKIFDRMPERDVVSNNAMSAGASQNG
Test: high-throughput RNA pulldown from lysate on Ni-NTA beads; HRP: 50 mM Tris pH 8, 150 mM NaCl, 1 mM beta-mercaptoethanol, 50 ug/ml BSA, 3 ug/ml yeast RNA, 0.5% heparin; ITC and FP: Tris pH 8, 200 mM KCl, 5% glycerol; MST: 50 mM Tris pH 8, 200 mM NaCl, 1 mM DTT, BSA, heparin, 0.05% Tween 20
Conditions: tags: N-terminal His-eGFP; label: 5' Cy5
measuredParameter: Kd (nM)
Kindly provide the numeric value in nM only, without the unit symbol.

AUUACACGUGA (ssRNA) [Cy5-rpoA]; 36.1

input: Any idea what Kd was measured for AUUAGACGUGA (ssRNA) [Cy5-rpoA-G] ?
output: 149
